Data origin: PubChem BioAssay AID652018

Tested on: Anti-Targets
Assay: LYPLA1/LYPLA2 inhibition and anti-target count – cell lysate, competitive ABPP, HEK293T proteome, set 2, selectivity assay for LYPLA1 inhibitor project, late-stage follow-up (AID 652018)
Settings: competitive ABPP FP-PEG-Rh gel
Calls of active or inactive are those of the source.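 The calls were made as follows: active = at least 50% inhibition of LYPLA1 or LYPLA2 at 300 nM, with no off-target enzyme hit at any dose; inactive = under 50% inhibition on both enzymes, or any off-target hit.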
The categories you may choose from are active, inactive

These recorded examples may help you get a feel for the data.
O=C(CN1CCN(C(=O)n2cc(-c3ccc(OC(F)(F)F)cc3)nn2)CC1)Nc1cc(C(F)(F)F)ccc1Cl
inactive
O=C(CN1CCN(C(=O)n2nccn2)CC1)Nc1cc(C(F)(F)F)ccc1Cl
inactive
COc1ccc(N2CCN(C(=O)n3nc(Br)nc3Br)CC2)cc1
inactive
COc1ccc(N2CCN(C(=O)n3nc(Br)c(Br)n3)CC2)cc1
active

Could you please tell me the result logged for COc1ccc(N2CCN(C(=O)n3ncc(-c4ccccc4)n3)CC2)cc1 in this assay?
inactive

Could you please tell me the result logged for O=C(CN1CCN(C(=O)n2ncc(-c3ccc(-c4ccccc4)cc3)n2)CC1)Nc1cc(C(F)(F)F)ccc1Cl in this assay?
inactive
